src = patent US5461057A

- Test system: histamine-induced dyspnea
- protocol_details: Bronchodilator (in vivo) Guinea Pig Dyspnea
- applied_conditions: 100 mg/kg, oral, one hour before histamine challenge
experimental_readout: DYSP survivors

c1ccc(C2=C3CC4CCC(N4)C3c3ccccc32)cc1 (stereo not shown) [Q] : 0/3
Cc1ccc(C2=C3CC4CCC(C3c3ccccc32)N4C)cc1 (stereo not shown) [J] : 3/3
COc1ccc(C2C3=C(c4ccccc42)C2CCC(C3)N2C)cc1OC (stereo not shown) [AA] : 0/3
COc1ccc2c(c1)C1=C(CC3CCC1N3C)C2c1ccccc1 (stereo not shown) [Z] : 0/3
CN1C2CCC1C1C(=C(c3ccccc3)c3ccccc31)C2 (stereo not shown) [T] : 2/3
COc1ccc2c(c1)C(c1ccccc1)=C1CC3CCC(C12)N3C (stereo not shown) [V] : 0/3
COc1ccc(C2=C3CC4CCC(C3c3ccccc32)N4C)cc1 (stereo not shown) [R] : 1/3
CN1C2CCC1C1C(=C(c3ccccc3C(F)(F)F)c3ccccc31)C2 (stereo not shown) [Compound S] : 0/3

Task: I am curious: what DYSP survivors value has been reported for CN1C2CCC1C1C(=C(c3ccc(F)cc3)c3cc(Cl)ccc31)C2 (stereo not shown) [Compound E] ?
Output: 0/3

Task: Same for CN1C2CCC1C1C(=C(c3ccccc3)c3ccc(F)cc31)C2 (stereo not shown) [M]
Output: 0/3

Task: Check CN1C2CCC1C1C(=C(c3cccc(F)c3)c3ccccc31)C2 (stereo not shown) [O] too.
Output: 0/3

Task: Moving on to the next compound: COc1ccc2c(c1)C(c1ccccc1)C1=C2C2CCC(C1)N2 (stereo not shown) [FF]
Output: 0/3
